# solubility in MTBE per record follows
Assay: solubility of the compound in common solvents
Assay type: physicochemical
Settings: 25-30° C.; methyl tert-butyl ether
measure name: solubility in MTBE

molecule | measure name | measurement
CCCCCCCCCCCCCOc1ccc(CN(CCOCCOc2ccc(C(N)c3ccccc3)cc2)C(C)=O)cc1OCCCCCCCCCCCCC (stereo not shown) [DPA-027] | solubility in MTBE | >75%
CCCCCCCCCCCCCOc1ccc(CN(CC(=O)NCCOCCOc2ccc(C(N)c3ccccc3)cc2)C(=O)CC(C)CC(C)(C)C)cc1OCCCCCCCCCCCCC (stereo not shown) [DPA-030] | solubility in MTBE | >40%
CC(C)CCCC(C)CCCC(C)CCCC(C)CCOc1cc(COc2ccc(C(N)c3ccccc3)cc2)cc(OCCC(C)CCCC(C)CCCC(C)CCCC(C)C)c1OCCC(C)CCCC(C)CCCC(C)CCCC(C)C (stereo not shown) [REF-002, reference compound] | solubility in MTBE | >100%
CCCCCCCCCCCCCOc1ccc(CN(CCOCCOc2ccc(C(N)c3ccccc3)cc2)C(=O)CC(C)CC(C)(C)C)cc1OCCCCCCCCCCCCC (stereo not shown) [DPA-028] | solubility in MTBE | >100%

This collection of values is drawn from patent US12172946B2.
